Assay: Fraction unbound in mouse plasma at 5 uM by LC-MS/MS method
Type: ADME, cell-free
Output YES for fraction unbound at 5 µM not less than 0.1; output NO otherwise.

I'd appreciate it if you could say whether COc1cc(OC)c2c(c1Cl)O[C@]1(C2=O)C(NCc2ccc(F)cc2)=CC(=O)C[C@H]1C has fraction unbound at 5 µM at least equal to 0.1.
YES

I'd appreciate it if you could say whether COc1cc(OC)c2c(c1Cl)O[C@]1(C2=O)C(OCc2ccc(C)cc2)=CC(=O)C[C@H]1C has fraction unbound at 5 µM at least equal to 0.1.
NO

I'd appreciate it if you could say whether COc1cc(OC)c2c(c1Cl)O[C@]1(C2=O)C(NCc2ccc(C)cc2)=CC(=O)C[C@H]1C has fraction unbound at 5 µM at least equal to 0.1.
YES

I'd appreciate it if you could say whether COc1cc(OC)c2c(c1Cl)O[C@]1(C2=O)C(N(C)Cc2ccccc2)=CC(=O)C[C@H]1C has fraction unbound at 5 µM at least equal to 0.1.
NO

I'd appreciate it if you could say whether COc1cc(OC)c2c(c1Cl)O[C@]1(C2=O)C(OCc2ccccc2)=CC(=O)C[C@H]1C has fraction unbound at 5 µM at least equal to 0.1.
YES

I'd appreciate it if you could say whether COC1=CC(=O)C[C@@H](C)[C@]12Oc1c(Cl)c(OC)cc(OC)c1C2=O has fraction unbound at 5 µM at least equal to 0.1.
YES

I'd appreciate it if you could say whether COc1cc(OC)c2c(c1Cl)O[C@]1(C2=O)C(NCc2ccccc2)=CC(=O)C[C@H]1C has fraction unbound at 5 µM at least equal to 0.1.
YES

I'd appreciate it if you could say whether COc1cc(OC)c2c(c1Cl)O[C@]1(C2=O)C(OCc2ccccc2)=C/C(=N/O)C[C@H]1C has fraction unbound at 5 µM at least equal to 0.1.
NO
